Recorded log10 of IC50 for compounds tested on Alpha-mannosidase (Canavalia ensiformis), drawn from a number of studies.
# study_target: Alpha-mannosidase (Canavalia ensiformis)
# Sequence (C0HJB3 whole entry): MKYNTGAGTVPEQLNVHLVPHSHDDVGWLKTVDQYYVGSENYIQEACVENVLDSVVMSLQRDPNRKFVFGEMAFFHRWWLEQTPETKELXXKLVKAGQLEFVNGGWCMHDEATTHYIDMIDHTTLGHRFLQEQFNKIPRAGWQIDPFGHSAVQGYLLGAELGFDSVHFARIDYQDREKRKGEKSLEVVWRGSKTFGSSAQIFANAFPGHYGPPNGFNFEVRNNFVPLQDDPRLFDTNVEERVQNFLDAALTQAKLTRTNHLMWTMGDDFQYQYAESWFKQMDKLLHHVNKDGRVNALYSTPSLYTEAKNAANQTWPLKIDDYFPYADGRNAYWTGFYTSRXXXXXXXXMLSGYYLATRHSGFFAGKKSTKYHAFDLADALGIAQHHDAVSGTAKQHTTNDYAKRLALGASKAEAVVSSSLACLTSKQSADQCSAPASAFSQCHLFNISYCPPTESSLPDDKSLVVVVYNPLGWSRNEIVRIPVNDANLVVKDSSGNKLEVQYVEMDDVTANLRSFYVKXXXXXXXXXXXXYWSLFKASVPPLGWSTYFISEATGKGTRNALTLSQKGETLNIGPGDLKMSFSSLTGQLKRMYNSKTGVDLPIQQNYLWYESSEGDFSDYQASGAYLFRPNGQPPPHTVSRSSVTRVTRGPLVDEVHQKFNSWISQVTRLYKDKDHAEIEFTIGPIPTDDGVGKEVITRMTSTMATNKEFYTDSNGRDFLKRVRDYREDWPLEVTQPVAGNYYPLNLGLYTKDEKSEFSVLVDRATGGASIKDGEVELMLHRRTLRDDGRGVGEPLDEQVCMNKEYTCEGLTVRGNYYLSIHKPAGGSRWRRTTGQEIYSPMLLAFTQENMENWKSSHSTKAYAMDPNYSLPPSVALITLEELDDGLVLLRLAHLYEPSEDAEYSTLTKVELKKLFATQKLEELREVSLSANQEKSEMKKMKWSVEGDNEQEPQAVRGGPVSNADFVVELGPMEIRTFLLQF
Answers are given as log10 of IC50 in µM.

Previously resolved entries follow.
molecule_smiles	study_target	observed_value
COc1ccc([C@@H]2N[C@@H](CO)[C@H](O)[C@H]2O)cc1O	Alpha-mannosidase (Canavalia ensiformis)	1.45
Cc1ccc(S(=O)(=O)Nc2ccc(C(=O)/C=C/c3ccc(O)c(O)c3)cc2)cc1	Alpha-mannosidase (Canavalia ensiformis)	2.02
O=C1CC[C@@]2(CO)[C@@H](O)[C@H](O)[C@H](O)CN12	Alpha-mannosidase (Canavalia ensiformis)	0.11
CN1[C@H](C(=O)O)[C@H](O)[C@@H]1CO	Alpha-mannosidase (Canavalia ensiformis)	1.92

Here is another compound to look at.
Qu. Checklist item: log10 of IC50 tested on Alpha-mannosidase (Canavalia ensiformis), entry Cc1cc2c(c(=O)[nH]1)C(=O)O/C2=C\c1ccc(CO)n1Cc1ccccc1 , value?
Ans. 1.97

* * *

Let's look at some pIC50 data for Alpha-mannosidase (Canavalia ensiformis) that I collected from the literature.
# study_target: Alpha-mannosidase (Canavalia ensiformis)
# Sequence (C0HJB3 whole entry): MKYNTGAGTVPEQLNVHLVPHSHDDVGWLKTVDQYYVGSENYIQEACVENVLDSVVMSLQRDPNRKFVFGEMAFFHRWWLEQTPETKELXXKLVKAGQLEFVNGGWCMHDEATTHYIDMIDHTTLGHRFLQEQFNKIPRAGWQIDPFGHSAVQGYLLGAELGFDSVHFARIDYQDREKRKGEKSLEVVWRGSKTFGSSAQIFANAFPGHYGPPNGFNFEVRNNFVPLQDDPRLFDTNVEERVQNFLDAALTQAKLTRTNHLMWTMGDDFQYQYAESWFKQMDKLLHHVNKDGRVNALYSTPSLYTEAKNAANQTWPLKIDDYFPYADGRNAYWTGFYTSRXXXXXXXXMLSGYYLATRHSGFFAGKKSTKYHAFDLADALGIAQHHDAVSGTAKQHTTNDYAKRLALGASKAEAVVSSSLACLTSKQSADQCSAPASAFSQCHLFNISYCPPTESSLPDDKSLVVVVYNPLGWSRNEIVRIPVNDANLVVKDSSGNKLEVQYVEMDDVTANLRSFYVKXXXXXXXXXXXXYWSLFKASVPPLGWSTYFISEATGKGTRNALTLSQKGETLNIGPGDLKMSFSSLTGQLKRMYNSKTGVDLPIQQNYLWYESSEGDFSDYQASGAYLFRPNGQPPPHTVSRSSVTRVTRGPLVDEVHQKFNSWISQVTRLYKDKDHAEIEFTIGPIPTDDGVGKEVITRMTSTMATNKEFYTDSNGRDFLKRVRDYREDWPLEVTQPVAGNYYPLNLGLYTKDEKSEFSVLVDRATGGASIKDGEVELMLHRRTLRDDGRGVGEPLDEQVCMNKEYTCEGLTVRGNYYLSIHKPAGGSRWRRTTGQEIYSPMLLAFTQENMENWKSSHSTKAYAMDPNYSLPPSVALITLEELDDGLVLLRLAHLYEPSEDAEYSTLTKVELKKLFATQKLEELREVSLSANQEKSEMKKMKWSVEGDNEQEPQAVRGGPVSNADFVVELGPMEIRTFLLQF
The read-out pIC50 is expressed as -log10 of concentration in moles per litre.

Sample records with pIC50:
molecule_smiles	observed_value
O=C1CC[C@@]2(CO)[C@@H](O)[C@H](O)[C@@H](O)CN12	7.12
O=c1c(-c2ccc(O)cc2)coc2cc(O)cc(O)c12	4.31

Qu. Consider the molecule Cc1ccc(S(=O)(=O)Nc2cccc(C(=O)/C=C/c3ccc(O)c(O)c3)c2)cc1 and give its measured pIC50.
Ans. 3.98

Qu. Next molecule up: Cc1ccc(S(=O)(=O)Nc2ccc(C(=O)/C=C/c3ccc(O)cc3)cc2)cc1
Ans. 3.98

Qu. Continue with O=C(N/N=C/c1ccc(Cl)cc1)c1ccc(-c2nc3ccccc3s2)cc1
Ans. 4.82

Qu. Same again, this time with OC[C@@H]1N[C@H]([C@@H](O)CO)[C@@H]1O
Ans. 4.12

Qu. Likewise for O=C1CC[C@]2(CO)[C@@H](O)[C@H](O)[C@@H](O)CN12 ?
Ans. 7.25

Qu. Can you check Cc1ccc(S(=O)(=O)Nc2cccc(C(=O)/C=C/c3ccc(O)cc3)c2)cc1 next?
Ans. 3.98

Qu. Try this molecule too: O=C1Nc2cc(Cl)ccc2/C1=C/c1ccc(O)c(O)c1
Ans. 4.55

Qu. Please give the result for CC(C)c1ccc(/C=C2\C(=O)Nc3cc(Cl)ccc32)cc1 too.
Ans. 4.55
